// provenance: patent US20240317847A1

Each entry below lists one item and its recorded IC50, RGA 2 value.
Biological target: T1, human IL-11 (human, UniProt P20809 22-199)
T1 sequence: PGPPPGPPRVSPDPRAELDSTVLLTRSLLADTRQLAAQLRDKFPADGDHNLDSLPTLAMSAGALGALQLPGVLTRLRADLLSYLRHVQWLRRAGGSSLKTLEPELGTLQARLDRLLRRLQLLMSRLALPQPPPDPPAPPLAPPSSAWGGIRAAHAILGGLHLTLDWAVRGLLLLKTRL
Assay: cell-based or functional assay
# output: bare number, implied unit nM

These solved cases illustrate the format of a correct answer.
[[record]]
binder = "TPP-31283 (antibody, IgG4, V domains shown) VH: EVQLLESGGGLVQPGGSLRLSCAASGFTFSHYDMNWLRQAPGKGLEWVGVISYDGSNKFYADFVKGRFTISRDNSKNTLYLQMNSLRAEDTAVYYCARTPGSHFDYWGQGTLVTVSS VL: QSVLTQPPSASGTPGQRVTISCSGSSSNIGNNAVNWYQQLPGTAPKLLIYYDDQLPSGVPDRFSGSKSGTSASLAISGLRSEDEADYYCSAWDDSLNGVVFGGGTKLTVL"
attribute_measured = "IC50, RGA 2"
readout_value = 200

[[record]]
binder = "TPP-31295 (antibody, IgG4, V domains shown) VH: EVQLLESGGGLVQPGGSLRLSCAASGFTFSHYDMNWLRQAPGKGLEWVGVISYDGSNKYYADFVKGRFTISRDNSKNTLYLQMNSLRAEDTAVYYCARTPGSHFDYWGQGTLVTVSS VL: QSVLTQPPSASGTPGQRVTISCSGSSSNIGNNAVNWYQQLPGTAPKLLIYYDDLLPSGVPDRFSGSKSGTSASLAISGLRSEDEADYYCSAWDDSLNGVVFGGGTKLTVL"
attribute_measured = "IC50, RGA 2"
readout_value = 92


Would you kindly look at the next entry?
[ask] Look up IC50, RGA 2 of TPP-31292 (antibody, IgG4, V domains shown, hIgG4 SPLE, lambda) VH: EVQLLESGGGLVQPGGSLRLSCAASGFTFSHYDMHWLRQAPGKGLEWVGVISYDGSNKFYADFVKGRFTISRDNSKNTLYLQMNSLRAEDTAVYYCARTPGSHFDYWGQGTLVTVSS VL: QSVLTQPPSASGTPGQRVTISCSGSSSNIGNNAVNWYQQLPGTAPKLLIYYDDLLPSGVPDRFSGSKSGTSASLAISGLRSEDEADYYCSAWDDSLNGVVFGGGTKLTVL and report it.
[reply] 107
